Here, each record is paired with measured residual activity data.
target: MYLK2 (human); assay: radiometric filter-binding kinase assay, Kinase HotSpot; settings: compound 0.5 µM; ATP 10 µM
EXPERIMENTAL_ENDPOINT: residual activity (%)

>>> readout_value("COc1ccc(Cl)cc1NC(=O)Nc1cc(C)nc2ccccc12")
99.3
>>> readout_value("O=C1c2ccccc2-c2nc3nnnn3nc21")
88.1
>>> readout_value("CCCCc1c(-c2ccc(OC)cc2)[nH]c2nccnc12")
102
>>> readout_value("CS(=O)(=O)CCNCc1ccc(-c2ccc3ncnc(Nc4ccc(OCc5cccc(F)c5)c(Cl)c4)c3c2)o1")
108
>>> readout_value("c1ccc2c(-c3ccncc3)c[nH]c2c1")
96.2
>>> readout_value("COc1cc2ncnc(Nc3ccc(OCc4ccccc4)cc3)c2cc1OC")
97.5
>>> readout_value("N#Cc1c[nH]c2c[nH]/c(=N\\Cc3cccnc3)cc2/c1=N\\c1ccc(F)c(Cl)c1")
96.2
>>> readout_value("CC(C)(C)c1cc(C=C(C#N)C#N)cc(Br)c1O")
99.3
>>> readout_value("NC(=O)c1cccc(-c2cc(Nc3ccc(OC(F)(F)F)cc3)ncn2)c1")
97.1
>>> readout_value("O=C1NC(=O)c2c1c1c3ccccc3[nH]c1n1cncc21")
33.7
>>> readout_value("N#C/C(=C\\c1ccc(O)c(O)c1)C(=O)NCc1ccccc1")
97.9

---

Here, each record is paired with measured residual activity data.
molecular target: CAMK2G (human) (UniProt Q13555); test: radiometric filter-binding kinase assay, Kinase HotSpot; conditions: compound 0.5 µM; ATP 10 µM
Sequence (Q13555 whole entry, looked up): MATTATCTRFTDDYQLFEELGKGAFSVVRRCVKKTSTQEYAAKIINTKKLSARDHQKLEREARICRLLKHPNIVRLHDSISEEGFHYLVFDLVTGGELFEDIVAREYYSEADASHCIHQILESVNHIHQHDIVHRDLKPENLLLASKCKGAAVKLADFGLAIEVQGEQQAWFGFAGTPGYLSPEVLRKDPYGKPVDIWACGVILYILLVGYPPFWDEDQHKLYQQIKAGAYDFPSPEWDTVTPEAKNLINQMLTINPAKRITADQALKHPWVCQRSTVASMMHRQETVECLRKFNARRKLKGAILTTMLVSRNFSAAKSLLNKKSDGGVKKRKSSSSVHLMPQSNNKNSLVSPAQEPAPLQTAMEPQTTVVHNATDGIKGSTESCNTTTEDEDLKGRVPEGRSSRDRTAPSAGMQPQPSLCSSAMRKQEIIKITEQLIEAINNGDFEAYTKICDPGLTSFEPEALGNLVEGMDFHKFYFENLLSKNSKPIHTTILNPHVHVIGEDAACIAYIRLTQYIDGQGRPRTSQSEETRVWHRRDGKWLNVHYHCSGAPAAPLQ
EXPERIMENTAL_ENDPOINT: residual activity (%)

>>> readout_value("COc1ccc2c(c1)/C(=C/c1cnc[nH]1)C(O)=N2")
94.6
>>> readout_value("Cn1c2ccccc2c2c3c(c4c5ccccc5n(CCC#N)c4c21)CNC3=O")
21.9
>>> readout_value("Cc1cncc2cccc(S(=O)(=O)N3CCCN(C(=O)CN)C[C@H]3C)c12")
94
>>> readout_value("CS(=O)(=O)CCNCc1ccc(-c2ccc3ncnc(Nc4ccc(OCc5cccc(F)c5)c(Cl)c4)c3c2)o1")
111
>>> readout_value("COc1cc2ncnc(Nc3ccc(OCc4ccccc4)cc3)c2cc1OC")
94.2
>>> readout_value("CN(C)S(=O)(=O)c1ccc2c(c1)/C(=C/c1cc3c([nH]1)CCCC3)C(=O)N2")
98.9
>>> readout_value("COc1cc(Nc2c(C#N)cnc3cc(OCCCN4CCN(C)CC4)c(OC)cc23)c(Cl)cc1Cl")
131
>>> readout_value("COc1ccc2c(c1)c(C1=C(c3c[nH]c4ccccc34)C(=O)NC1=O)cn2CCCN(C)C")
91.1
>>> readout_value("COc1ccc(Cl)cc1NC(=O)Nc1cc(C)nc2ccccc12")
91.6
>>> readout_value("CCCCc1c(-c2ccc(OC)cc2)[nH]c2nccnc12")
107

---

target: MAP3K7 TAB1 (human) (UniProt O43318+Q15750); test: radiometric filter-binding kinase assay, Kinase HotSpot; conditions: compound 0.5 µM; ATP 10 µM
Sequence (O43318 whole entry, looked up): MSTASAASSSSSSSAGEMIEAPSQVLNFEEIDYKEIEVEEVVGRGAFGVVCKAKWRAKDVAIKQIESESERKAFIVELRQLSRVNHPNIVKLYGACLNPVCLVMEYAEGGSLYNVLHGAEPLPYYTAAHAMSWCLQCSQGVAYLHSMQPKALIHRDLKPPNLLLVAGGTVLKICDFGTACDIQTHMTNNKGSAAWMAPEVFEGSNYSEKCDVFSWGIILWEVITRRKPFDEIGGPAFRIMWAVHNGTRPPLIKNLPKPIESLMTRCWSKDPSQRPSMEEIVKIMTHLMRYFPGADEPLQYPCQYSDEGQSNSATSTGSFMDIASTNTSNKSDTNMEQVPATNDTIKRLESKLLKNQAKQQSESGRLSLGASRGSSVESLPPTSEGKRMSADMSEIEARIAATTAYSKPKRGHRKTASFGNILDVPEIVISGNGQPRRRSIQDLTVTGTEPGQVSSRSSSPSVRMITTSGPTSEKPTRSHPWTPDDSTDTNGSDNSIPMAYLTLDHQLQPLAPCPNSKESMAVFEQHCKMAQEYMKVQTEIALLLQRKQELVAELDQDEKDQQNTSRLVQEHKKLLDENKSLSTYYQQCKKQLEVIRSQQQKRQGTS
Sequence (Q15750 whole entry, looked up): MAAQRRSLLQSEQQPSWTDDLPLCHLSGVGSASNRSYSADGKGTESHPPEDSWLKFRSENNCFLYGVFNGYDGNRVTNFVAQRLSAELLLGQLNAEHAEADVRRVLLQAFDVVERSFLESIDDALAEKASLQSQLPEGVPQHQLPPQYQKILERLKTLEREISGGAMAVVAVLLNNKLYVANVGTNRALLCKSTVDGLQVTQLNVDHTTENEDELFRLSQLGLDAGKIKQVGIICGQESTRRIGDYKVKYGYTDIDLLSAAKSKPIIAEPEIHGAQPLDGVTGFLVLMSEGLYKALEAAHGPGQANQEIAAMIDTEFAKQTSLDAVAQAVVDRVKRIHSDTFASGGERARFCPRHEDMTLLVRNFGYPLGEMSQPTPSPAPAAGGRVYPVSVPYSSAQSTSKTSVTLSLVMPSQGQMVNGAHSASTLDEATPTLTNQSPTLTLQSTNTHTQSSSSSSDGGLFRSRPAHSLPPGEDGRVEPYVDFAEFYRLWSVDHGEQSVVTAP
Here, each record is paired with measured residual activity data.
EXPERIMENTAL_ENDPOINT: residual activity (%)

>>> readout_value("Cc1nc(-c2ccccc2)c(-c2ccncc2)o1")
93.6
>>> readout_value("COc1ccc(C(=O)Nc2sc3c(c2C(N)=O)CCCC3)cc1OC")
101
>>> readout_value("COc1ccc(S(=O)(=O)N(CCO)c2ccccc2CN(C)C/C=C/c2ccc(Cl)cc2)cc1")
94.7
>>> readout_value("COc1cc2ncnc(Nc3ccc(OCc4ccccc4)cc3)c2cc1OC")
101
>>> readout_value("N#Cc1c[nH]c2c[nH]/c(=N\\Cc3cccnc3)cc2/c1=N\\c1ccc(F)c(Cl)c1")
89.5
>>> readout_value("O=C1C(Cl)=C(N2C(=O)CCC2=O)C(=O)c2ccccc21")
99.5
>>> readout_value("O=C1c2ccccc2-c2nc3nnnn3nc21")
89.9
>>> readout_value("CCCCc1c(-c2ccc(OC)cc2)[nH]c2nccnc12")
90.6
>>> readout_value("COc1ccc2c(c1)c(C1=C(c3c[nH]c4ccccc34)C(=O)NC1=O)cn2CCCN(C)C")
102
>>> readout_value("O=C1NC(=O)c2c1c1c3ccccc3[nH]c1n1cncc21")
63.4
>>> readout_value("O=C1Nc2ccc(Br)cc2/C1=C\\c1cc2c([nH]1)CCCC2")
60.9
>>> readout_value("COc1cc(Nc2c(C#N)cnc3cc(OCCCN4CCN(C)CC4)c(OC)cc23)c(Cl)cc1Cl")
28.3
>>> readout_value("CC(C)(C)c1cc(C=C(C#N)C#N)cc(Br)c1O")
87.9
>>> readout_value("NC(=O)c1cccc(-c2cc(Nc3ccc(OC(F)(F)F)cc3)ncn2)c1")
99.1
>>> readout_value("Cc1cn(-c2cc(NC(=O)c3ccc(C)c(Nc4nccc(-c5cccnc5)n4)c3)cc(C(F)(F)F)c2)cn1")
89.2
>>> readout_value("CN(C)c1ccc(/C=C2\\C(=O)Nc3ccccc32)cc1")
100
>>> readout_value("CN(C)CCCn1cc(C2=C(c3c[nH]c4ccccc34)C(=O)NC2=O)c2ccccc21")
93.6
>>> readout_value("C[C@@H]1CCN(C(=O)CC#N)C[C@@H]1N(C)c1ncnc2[nH]ccc12")
87.5
>>> readout_value("Ic1cccc(CSc2nnc(-c3ccncc3)o2)c1")
102
>>> readout_value("NCCNc1ncc(C(N)=O)c(Nc2cccc(C(F)(F)F)c2)n1")
71.2
>>> readout_value("COc1cc2ncnc(Nc3ccc(Oc4ccccc4)cc3)c2cc1OC")
102
>>> readout_value("CN1CCN(c2ccc3nc(-c4c(N)c5c(F)cccc5[nH]c4=O)[nH]c3c2)CC1")
19.3
>>> readout_value("Fc1ccc(-c2nc3n(c2-c2ccncc2)CCS3)cc1")
92.2
>>> readout_value("O=C1c2ccccc2-c2n[nH]c3cccc1c23")
59.3
>>> readout_value("CS(=O)(=O)CCNCc1ccc(-c2ccc3ncnc(Nc4ccc(OCc5cccc(F)c5)c(Cl)c4)c3c2)o1")
89
>>> readout_value("c1ccc2c(-c3ccncc3)c[nH]c2c1")
95.5
>>> readout_value("N#C/C(=C\\c1ccc(O)c(O)c1)C(=O)NCc1ccccc1")
98.1
>>> readout_value("COc1ccc(Cl)cc1NC(=O)Nc1cc(C)nc2ccccc12")
101
>>> readout_value("Cc1cncc2cccc(S(=O)(=O)N3CCCN(C(=O)CN)C[C@H]3C)c12")
94.9
>>> readout_value("CN(C)S(=O)(=O)c1ccc2c(c1)/C(=C/c1cc3c([nH]1)CCCC3)C(=O)N2")
89
>>> readout_value("Cc1cccc(-c2nc(C(C)(C)C)[nH]c2-c2ccc3c(c2)OCO3)n1")
96.3
>>> readout_value("Cn1c2ccccc2c2c3c(c4c5ccccc5n(CCC#N)c4c21)CNC3=O")
25.4
>>> readout_value("COc1ccc2c(c1)/C(=C/c1cnc[nH]1)C(O)=N2")
63.7
>>> readout_value("O=C(c1cc2cc(O)ccc2[nH]1)c1cc2cc(O)ccc2[nH]1")
79.5

---

biological target: PLK2 (human) (UniProt Q9NYY3); test: radiometric filter-binding kinase assay, Kinase HotSpot; conditions: compound 0.5 µM; ATP 10 µM
Sequence (Q9NYY3 whole entry, looked up): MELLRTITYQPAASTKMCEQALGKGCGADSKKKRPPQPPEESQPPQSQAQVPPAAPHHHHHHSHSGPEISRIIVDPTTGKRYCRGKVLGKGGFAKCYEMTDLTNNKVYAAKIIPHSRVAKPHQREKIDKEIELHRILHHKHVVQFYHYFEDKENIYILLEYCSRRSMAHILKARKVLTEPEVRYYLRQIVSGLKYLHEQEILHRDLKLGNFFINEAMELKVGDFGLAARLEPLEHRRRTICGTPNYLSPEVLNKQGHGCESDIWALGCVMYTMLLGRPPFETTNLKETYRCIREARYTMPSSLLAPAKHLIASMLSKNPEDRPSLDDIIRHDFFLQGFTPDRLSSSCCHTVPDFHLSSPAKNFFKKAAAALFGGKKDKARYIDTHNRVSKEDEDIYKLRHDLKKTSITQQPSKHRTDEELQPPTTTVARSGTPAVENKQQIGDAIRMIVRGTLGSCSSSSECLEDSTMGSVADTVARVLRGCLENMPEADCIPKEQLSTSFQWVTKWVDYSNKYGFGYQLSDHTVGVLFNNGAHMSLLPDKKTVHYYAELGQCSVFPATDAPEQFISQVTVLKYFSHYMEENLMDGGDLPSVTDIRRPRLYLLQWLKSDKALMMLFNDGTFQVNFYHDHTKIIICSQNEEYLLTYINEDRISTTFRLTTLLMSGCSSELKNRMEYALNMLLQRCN
Here, each record is paired with measured residual activity data.
EXPERIMENTAL_ENDPOINT: residual activity (%)

>>> readout_value("CN(C)c1ccc(/C=C2\\C(=O)Nc3ccccc32)cc1")
111
>>> readout_value("N#C/C(=C\\c1ccc(O)c(O)c1)C(=O)NCc1ccccc1")
105
>>> readout_value("CN(C)S(=O)(=O)c1ccc2c(c1)/C(=C/c1cc3c([nH]1)CCCC3)C(=O)N2")
94.4
>>> readout_value("COc1cc(Nc2c(C#N)cnc3cc(OCCCN4CCN(C)CC4)c(OC)cc23)c(Cl)cc1Cl")
100
>>> readout_value("O=C1C(Cl)=C(N2C(=O)CCC2=O)C(=O)c2ccccc21")
96
>>> readout_value("O=C1NC(=O)c2c1c1c3ccccc3[nH]c1n1cncc21")
63.8
>>> readout_value("CC(C)(C)c1cc(C=C(C#N)C#N)cc(Br)c1O")
92.6
>>> readout_value("COc1ccc2c(c1)/C(=C/c1cnc[nH]1)C(O)=N2")
95.2
>>> readout_value("O=C1c2ccccc2-c2nc3nnnn3nc21")
37.3
>>> readout_value("NC(=O)c1cccc(-c2cc(Nc3ccc(OC(F)(F)F)cc3)ncn2)c1")
98
>>> readout_value("O=C1Nc2ccc(Br)cc2/C1=C\\c1cc2c([nH]1)CCCC2")
102
>>> readout_value("COc1cc2ncnc(Nc3ccc(Oc4ccccc4)cc3)c2cc1OC")
104
>>> readout_value("c1ccc2c(-c3ccncc3)c[nH]c2c1")
99.9
>>> readout_value("CN(C)CCCn1cc(C2=C(c3c[nH]c4ccccc34)C(=O)NC2=O)c2ccccc21")
97.3
>>> readout_value("CO[C@@H]1[C@H](N(C)C(=O)c2ccccc2)C[C@H]2O[C@]1(C)n1c3ccccc3c3c4c(c5c6ccccc6n2c5c31)C(=O)NC4")
97.5
>>> readout_value("N#Cc1c[nH]c2c[nH]/c(=N\\Cc3cccnc3)cc2/c1=N\\c1ccc(F)c(Cl)c1")
110
>>> readout_value("Cc1nc(-c2ccccc2)c(-c2ccncc2)o1")
106
>>> readout_value("Ic1cccc(CSc2nnc(-c3ccncc3)o2)c1")
101
>>> readout_value("O=C(c1cc2cc(O)ccc2[nH]1)c1cc2cc(O)ccc2[nH]1")
102
>>> readout_value("Fc1ccc(-c2nc3n(c2-c2ccncc2)CCS3)cc1")
103
>>> readout_value("CCCCc1c(-c2ccc(OC)cc2)[nH]c2nccnc12")
94.9
>>> readout_value("COc1ccc(Cl)cc1NC(=O)Nc1cc(C)nc2ccccc12")
102
>>> readout_value("CS(=O)(=O)CCNCc1ccc(-c2ccc3ncnc(Nc4ccc(OCc5cccc(F)c5)c(Cl)c4)c3c2)o1")
103
>>> readout_value("Cc1cccc(-c2nc(C(C)(C)C)[nH]c2-c2ccc3c(c2)OCO3)n1")
92.1
>>> readout_value("COc1cc2ncnc(Nc3ccc(OCc4ccccc4)cc3)c2cc1OC")
109
>>> readout_value("COc1ccc(C(=O)Nc2sc3c(c2C(N)=O)CCCC3)cc1OC")
106
>>> readout_value("Cn1c2ccccc2c2c3c(c4c5ccccc5n(CCC#N)c4c21)CNC3=O")
105
>>> readout_value("COc1ccc(S(=O)(=O)N(CCO)c2ccccc2CN(C)C/C=C/c2ccc(Cl)cc2)cc1")
102
>>> readout_value("COc1ccc2c(c1)c(C1=C(c3c[nH]c4ccccc34)C(=O)NC1=O)cn2CCCN(C)C")
103
>>> readout_value("C[C@@H]1CCN(C(=O)CC#N)C[C@@H]1N(C)c1ncnc2[nH]ccc12")
102
>>> readout_value("Cc1cncc2cccc(S(=O)(=O)N3CCCN(C(=O)CN)C[C@H]3C)c12")
101
